# System Tested: V30M mutated TTR (Homo sapiens, UniProt P02766, V50M)
# Assay Summary: Acid-mediated aggregation experiment (thioflavin T assay) of amyloid fibril formation
# Experimental Parameters: 10 μM V30M, pH 4.5, 310 K, 96 h, 0–20 μM compound, thioflavin T fluorescence
Each entry below lists one item and its recorded EC50 value.
Numeric only. Scale: µM

Past entries and their recorded results:
- Compound: "O=c1c2cc(O)c(O)cc2oc2cccc(O)c12 [Compound 11, 1,6,7-trihydroxyxanthone]"
  EC50 (µM): 14
- Compound: "CC(C)=CCc1c(O)cc2oc3ccc(O)cc3c(=O)c2c1O [Compound 9, 1,3,7-trihydroxy-2-prenylxanthone]"
  EC50 (µM): 13
- Compound: "CC(C)=CCc1c(O)cc2oc3cc(O)c(O)c(CCC(C)(C)O)c3c(=O)c2c1O"
  EC50 (µM): 10

Q: # return EC50 for O=c1c2cc(O)c(O)cc2oc2cc(O)cc(O)c12 , test system: V30M mutated TTR (Homo sapiens, UniProt P02766, V50M)
Result: 9.7

---

# System Tested: V30M mutated TTR (Homo sapiens, UniProt P02766, V50M)
# Assay Summary: Acid-mediated aggregation experiment (thioflavin T assay) of amyloid fibril formation
# Experimental Parameters: 10 μM V30M, pH 4.5, 310 K, 96 h, 0–20 μM compound, thioflavin T fluorescence
Endpoint Label: EC50

Previously resolved entries follow.
- Molecule: "CC(C)=CCc1c(O)c(CC=C(C)C)c2oc3c(O)ccc(O)c3c(=O)c2c1O"
  Endpoint Label: "EC50"
  Result: "> 20 µM"
- Molecule: "COc1c(O)cc2oc3cc4c(c(O)c3c(=O)c2c1CC=C(C)C)C=CC(C)(C)O4 [Compound 3, 9-hydroxycalabaxanthone]"
  Endpoint Label: "EC50"
  Result: "> 20 µM"

--- query ---
Q: Specify reported EC50 for the molecule shown: COc1c(O)cc2oc3cc4c(c(O)c3c(=O)c2c1CC=C(C)C)CCC(C)(C)O4
Result: > 20 µM
